Test system: OVCAR-3 ovarian
test: NCI tumour cell line growth inhibition, 48 h; in the data active means GI50 below about 0.43 µM; inactive means the rest
Labels: 1 = active, 0 = inactive

compound="COc1cc(C2c3[nH]c4ccccc4c3C[C@H]3COC(=O)N23)cc(OC)c1OC (some centres not stated)" assignedcategory=1
compound=CCCCON(OC(=O)c1ccccc1)C(=O)c1ccccc1 assignedcategory=0
compound=Cc1ccc([N+](=O)[O-])cc1NC(=O)Nc1cccc(F)c1 assignedcategory=0
compound="COc1ccc(C2CC(c3cc(OC)c(OC)c(OC)c3)=NO2)cc1OCCCCOc1cc2c(cc1OC)C(=O)N1CCC[C@H]1C=N2 (some centres not stated)" assignedcategory=0
compound=O=C1c2ccccc2-c2c1c1ccccc1c(=O)n2CCCCNCCCn1c2c(c3ccccc3c1=O)C(=O)c1ccccc1-2 assignedcategory=0
compound=CCN(CC)CCOCC[C@H]1CC[C@H]2[C@@H]3[C@H](C)Cc4cc(OS(N)(=O)=O)ccc4[C@H]3CC[C@]12C assignedcategory=0
compound=COc1ccc2[nH]c(=O)c3c4ccccc4cn3c2c1 assignedcategory=1
compound=F assignedcategory=0
compound=O=C(Nc1ccc(Cl)c(Cl)c1)c1cccc(NC2=C(Cl)C(=O)N(Cc3ccccc3)C2=O)c1 assignedcategory=0
compound="Cc1ccc2c(c1)C(C)Cc1c(ncnc1-n1cnc3ccccc31)N2C (configuration not stated)" assignedcategory=1
compound="CCS(=O)(=O)N1CCC(C(C)n2c(C)c(C(=O)NCc3c(OC)cc(C)[nH]c3=O)c3ccccc32)CC1 (configuration not stated)" assignedcategory=0
compound=COc1ccc(OC)c(/C=N/NC(=O)Cc2csc3nc(-c4ccc(Br)cc4)cn23)c1 assignedcategory=0

---

Form field: TGI (one value per entry).
System: UACC-62 melanoma
test: NCI tumour cell line growth inhibition, 48 h
assayEndpoint: TGI

compound=CCCCON(OC(=O)c1ccccc1)C(=O)c1ccccc1 endpointvalue="> 100 µM"
compound=N#Cc1c(N2CCCC2)nsc1NCc1ccccc1 endpointvalue="> 100 µM"
compound=Cc1c2c(c(C)n1-c1ccccc1)C(=O)N(CCCCN1CCN(c3ccccc3)CC1)C2=O endpointvalue="36.8 µM"
compound="CCCCCCCC1C(C)c2c([nH]c3ccccc23)C2C(=O)N(c3ccc(OC)cc3)C(=O)C21 (stereo not given)" endpointvalue="> 10 µM"
compound=COc1ccc(OC)c(/C=N/NC(=O)Cc2csc3nc(-c4ccc(Br)cc4)cn23)c1 endpointvalue="27.7 µM"

---

Form field: GI50 (one value per entry).
Tested on: MDA-MB-231 breast
test: NCI tumour cell line growth inhibition, 48 h
assayEndpoint: GI50

compound=COc1cc(C(=O)/C=C/c2c(C)n([O-])c3ccc(C)cc3[n+]2=O)cc(OC)c1OC endpointvalue="10.6 µM"
compound=COc1ccc(-c2cc(-c3cc(Cl)ccc3Cl)nc3n[nH]c(N)c23)cc1 endpointvalue="34 µM"
compound=COc1cc2c(cc1O)CC[C@@H]1[C@@H]2CC[C@]2(C)[C@@H](NCCN(C)C)CC[C@@H]12 endpointvalue="0.0979 µM"
compound=C=C1C(=O)O[C@H]2[C@H]1CC/C(CNC(=O)Cc1c[nH]c3ccccc13)=C\CC[C@@]1(C)O[C@@H]21 endpointvalue="3.87 µM"
compound=Cc1cccc(NC(=O)CCc2ccc(N3C(N)=NC(N)=NC3(C)C)cc2)c1 endpointvalue="> 65.2 µM"
compound=COC(=O)CCC(=O)C(=O)OC endpointvalue="39500 µM"
compound=FC(F)(F)c1nc(N2CCCC2)ncc1-c1nnnn1-c1ccc(Cl)cc1 endpointvalue="24.6 µM"
compound=COc1ccc2oc(=O)cc(C(c3ccc[nH]3)c3ccc[nH]3)c2c1 endpointvalue="0.109 µM"
compound=O=C(NC1CCN(Cc2ccccc2)CC1)c1cc(-c2ccncc2)nc2ccc(Cl)cc12 endpointvalue="4.5 µM"
compound="Clc1ccc(CSC(Cn2ccnc2)c2ccc(Cl)cc2Cl)cc1 (configuration not stated)" endpointvalue="1.51 µM"
compound=COc1cc(NS(C)(=O)=O)ccc1Nc1c2ccc([N+](=O)[O-])cc2nc2c(C)cccc12 endpointvalue="3.82 µM"
compound=Cc1ccc([N+](=O)[O-])cc1NC(=O)Nc1cccc(F)c1 endpointvalue="13.3 µM"
compound=O=C1c2ccccc2-c2c1c1ccccc1c(=O)n2CCCCNCCCn1c2c(c3ccccc3c1=O)C(=O)c1ccccc1-2 endpointvalue="0.319 µM"
compound=Cn1cc(-c2ccc3c(Nc4cccc(NC(=O)Nc5cccc(F)c5)c4)ncnc3c2)cn1 endpointvalue="2.88 µM"
compound="COc1ccc(C2CC(c3cc(OC)c(OC)c(OC)c3)=NO2)cc1OCCCCOc1cc2c(cc1OC)C(=O)N1CCC[C@H]1C=N2 (some centres not stated)" endpointvalue="1.15 µM"
compound=COc1ccc2[nH]c(=O)c3c4ccccc4cn3c2c1 endpointvalue="1.24 µM"
compound=Nc1ccc2c(c1)C(=O)C(=O)c1c-2nc2ccccn12 endpointvalue="1.75 µM"

---

System: KM20L2 colon
test: NCI tumour cell line growth inhibition, 48 h
Form field: TGI (one value per entry).
assayEndpoint: TGI (µM)

molecule=ON/N=C/c1cc2c(cc1Br)OCO2 unitstring=µM modifiersign=> endpointvalue=386
molecule=C/C(CN1C(=O)c2ccccc2C1=O)=N\NS(=O)(=O)c1ccc(C)cc1 unitstring=µM modifiersign=> endpointvalue=100
molecule="CC(C)/C=C1\\CCC(CN2CCCC2)C1=O (stereo not given)" unitstring=µM modifiersign== endpointvalue=36
molecule="CC1(C)CCC[C@@]2(C)C1CCC1(C)C(CCc3ccoc3)/C(=C/OS(=O)(=O)O)CCC12 (stereo not given in full) (tested in a mixture with another compound)" unitstring=µM modifiersign=> endpointvalue=100
molecule=CN(C)CCOc1cccc2c1C(=O)c1ccccc1C2=O unitstring=µM modifiersign== endpointvalue=46.8
molecule=COc1c(C=O)c2c(c(OC)c1OC)-c1ccc(OC)c(=O)cc1[C@@H](NC(C)=O)CC2 unitstring=µM modifiersign== endpointvalue=0.218
molecule=CC(C)(C)NNC(=O)/C(=C/c1ccc([N+](=O)[O-])cc1)NC(=O)c1ccccc1 unitstring=µM modifiersign=> endpointvalue=100
molecule="CC1(C)CC23C4COC(=O)C2CCC1C3CC4=O (stereo not given)" unitstring=µM modifiersign== endpointvalue=54.6
molecule="CN1C(=O)CC(c2cccc(C3CC(=O)N(C)C3=O)n2)C1=O (stereo not given)" unitstring=µM modifiersign=> endpointvalue=100
molecule=C=C(CN(C)C)C(=O)c1ccccc1C unitstring=µM modifiersign=> endpointvalue=100

---

Tested on: NCI-H23 lung
test: NCI tumour cell line growth inhibition, 48 h
Counter-ions that a name gives are not always drawn. Where a SMILES comes first, the peptide text is derived from it. The star is where a group is joined. Tfa = O=C(C(F)(F)F)*
Form field: TGI (one value per entry).
assayEndpoint: TGI

compound="CC1(C)CCC[C@@]2(C)C1CCC1(C)C(CCc3ccoc3)/C(=C/OS(=O)(=O)O)CCC12 (stereo partly drawn) (tested in a mixture with another compound)" tgt="NCI-H23 lung" endpointvalue="> 100 µM"
compound="CN(C)C(Cc1cnc[nH]1)C(=O)N1CCCC1C(N)=O (stereo not drawn)" tgt="NCI-H23 lung" endpointvalue="> 100 µM"
compound=Oc1ccc(-c2csc(NNC3=NC/C(=C/c4ccc5c(c4)OCO5)S3)n2)cc1O tgt="NCI-H23 lung" endpointvalue="47.7 µM"
compound="CC1CC(C)C(O)C(C2CC(CC(=O)NC3CCCCC3)CC(=O)O2)C1 (stereo not drawn)" tgt="NCI-H23 lung" endpointvalue="> 100 µM"
compound="C=C(C)C(=O)O[C@H]1C/C(CO)=C/CCC(=C)C(OC(C)=O)[C@H]2OC(=O)C(=C)[C@H]12 (stereo partly drawn)" tgt="NCI-H23 lung" endpointvalue="25 µM"
compound=Cc1cc(N(CCC#N)CCC#N)ccc1/C=C1N=C(/C=C\c2ccccc2)OC\1=O tgt="NCI-H23 lung" endpointvalue="> 100 µM"
compound=O=C1c2ccccc2-c2c1c1ccccc1c(=O)n2CCCCNCCCn1c2c(c3ccccc3c1=O)C(=O)c1ccccc1-2 tgt="NCI-H23 lung" endpointvalue="2.53 µM"
compound="NC(Cc1ccc(S(=O)(=O)O)cc1)C(=O)NC(CCCCNC(=O)NCCCCC(NC(=O)C(N)Cc1ccc(S(=O)(=O)O)cc1)C(=O)NC(Cc1ccc(S(=O)(=O)O)cc1)C(=O)O)C(=O)NC(Cc1ccc(S(=O)(=O)O)cc1)C(=O)O (stereo not drawn)" tgt="NCI-H23 lung" endpointvalue="> 100 µM"
compound="COc1cc(C2SCC(=O)N2c2cc(Cl)c(Cl)cc2Cl)cc(OC)c1OC (stereo not drawn)" tgt="NCI-H23 lung" endpointvalue="> 100 µM"
compound=Cc1ccc(NC(=O)c2cc3cc(N=Nc4ccc(Br)cc4)ccc3oc2=O)cc1 tgt="NCI-H23 lung" endpointvalue="> 100 µM"
compound="C[N+](C)(C)CC1CCCC/C1=N\\OC(=O)c1ccccc1 (stereo not drawn)" tgt="NCI-H23 lung" endpointvalue="> 100 µM"
compound=Cc1cccc(C(C)C)c1NC(=O)C(=O)CC(=O)c1sc(Nc2ccccc2Cl)nc1C tgt="NCI-H23 lung" endpointvalue="> 100 µM"
compound=CCOC(=O)Nc1cc2nnc(-c3ccccc3)nc2c(N)n1 tgt="NCI-H23 lung" endpointvalue="64.2 µM"
compound=CCNC(=O)[C@@H]1CCCN2C(=O)CC[C@H](NC(=O)[C@H](Cc3ccc(OP(=O)(O)O)cc3)NC(C)=O)C(=O)N12 tgt="NCI-H23 lung" endpointvalue="> 25 µM"
compound="CCS(=O)(=O)N1CCC(C(C)n2c(C)c(C(=O)NCc3c(OC)cc(C)[nH]c3=O)c3ccccc32)CC1 (stereo not drawn)" tgt="NCI-H23 lung" endpointvalue="> 100 µM"
compound=ClCCCN(CCCCl)c1ccc(C=Nc2cccc(Cl)c2)cc1 tgt="NCI-H23 lung" endpointvalue="53.5 µM"
compound=CC[C@]12CCCN3CCc4c(n(c5ccccc45)C(=O)C1)[C@@H]32 tgt="NCI-H23 lung" endpointvalue="> 100 µM"
compound="O=C(Nc1nnc(-c2ccccc2)o1)C(SC(=S)N1CCCCC1)c1ccccc1 (stereo not drawn)" tgt="NCI-H23 lung" endpointvalue="30.7 µM"
compound="O=C(O)CC(NC(=O)C(F)(F)F)C(=O)NC(Cc1ccc(O)cc1)C(=O)O (stereo not drawn) (Tfa-Asp-Tyr-OH; configuration not given here)" tgt="NCI-H23 lung" endpointvalue="> 50 µM"
compound=N=C(N)c1ccc(OCc2cccc(COc3ccc(C(=N)N)cc3)c2)cc1 tgt="NCI-H23 lung" endpointvalue="27.9 µM"
compound=CN(C)c1ccc(/C=c2/c3ccccc3n3c2c2ccccc2[n+]3C)cc1 tgt="NCI-H23 lung" endpointvalue="3.45 µM"
compound=Nc1ccc2c(c1)C(=O)C(=O)c1c-2nc2ccccn12 tgt="NCI-H23 lung" endpointvalue="3.05 µM"
compound=COc1ccc(Oc2cccc(/C=C3/C(=O)Nc4ccccc43)c2)cc1 tgt="NCI-H23 lung" endpointvalue="16.2 µM"
compound=CC[C@@]1(N(C)C)C(=O)OCc2c1cc1n(c2=O)Cc2cc3ccccc3nc2-1 tgt="NCI-H23 lung" endpointvalue="32 µM"
compound=NCC(=O)NC1(c2cc3ccccc3s2)CCCCC1 tgt="NCI-H23 lung" endpointvalue="> 100 µM"
compound=COc1ccc(OC)c(/C=N/NC(=O)Cc2csc3nc(-c4ccc(Br)cc4)cn23)c1 tgt="NCI-H23 lung" endpointvalue="52.3 µM"
compound="OC1[C@H]([C@H]2CCCC[C@@H]2O)CCC[C@@H]1[C@@H]1CCCC[C@H]1O (stereo partly drawn)" tgt="NCI-H23 lung" endpointvalue="> 100 µM"
compound="CCOC(=O)C1(C(N)=O)C(=O)c2ccncc2C1=O (stereo not drawn)" tgt="NCI-H23 lung" endpointvalue="> 100 µM"
compound=CCc1nc(N)nc(N)c1-c1ccc(NCCN)c([N+](=O)[O-])c1 tgt="NCI-H23 lung" endpointvalue="> 100 µM"
compound="C=CCOC(=O)N1[C@H]2C#C/C=C\\C#C[C@]3(O)C(=O)C[C@H](C)[C@]24O[C@]43C2=CC(=O)C=CC21OC (stereo partly drawn)" tgt="NCI-H23 lung" endpointvalue="> 100 µM"
compound=COc1cc2c(cc1O)CC[C@@H]1[C@@H]2CC[C@]2(C)[C@@H](NCCN(C)C)CC[C@@H]12 tgt="NCI-H23 lung" endpointvalue="0.636 µM"
compound=O=c1c2cc(-c3ccccc3)sc2nc2n1N=C(c1ccccc1)CS2 tgt="NCI-H23 lung" endpointvalue="> 100 µM"
compound="COc1ccc(C2=CC(c3ccccc3)n3nnnc3N2)cc1 (stereo not drawn)" tgt="NCI-H23 lung" endpointvalue="> 100 µM"
compound="COC(=O)CCc1cc(OC)c(O)c(C(Cc2ccc(OC)c(OC)c2)C(=O)OC)c1 (stereo not drawn)" tgt="NCI-H23 lung" endpointvalue="> 100 µM"
compound="CC(NS(=O)(=O)c1ccc([N+](=O)[O-])cc1)C(=O)O (stereo not drawn)" tgt="NCI-H23 lung" endpointvalue="> 100 µM"
compound=Brc1ccc2[nH]cc(-c3csc(-c4ccccn4)n3)c2c1 tgt="NCI-H23 lung" endpointvalue="> 100 µM"
compound=CC(C)(C)c1cc(CC2C(=O)c3ccccc3C2=O)cc(C(C)(C)C)c1O tgt="NCI-H23 lung" endpointvalue="> 100 µM"
compound=NC(=O)NNCc1ccccc1 tgt="NCI-H23 lung" endpointvalue="> 100 µM"
